Cited source for all entries: ChEMBL document CHEMBL1158482

target: D(3) dopamine receptor (Homo sapiens); assay: Displacement of [3H]spiperone from human cloned dopamine D3 receptor expressed in CHO cells; assay type: cell-based
Measured Attribute: Ki (nM)

INSERT INTO results (smiles_representation, endpoint_result) VALUES
  ('CSc1ccccc1N1CCN(CCCCNC(=O)c2cc3ccccn3n2)CC1', 0.35);

[1] Clc1ccc(N2CCN(CCCCCc3cc4ccccn4n3)CC2)cc1
[2] CSc1ccccc1N1CCN(CCCNC(=O)c2cnn3ccccc23)CC1
[3] COc1ccccc1N1CCN(Cc2cc3ccccn3n2)CC1
q: Put the items in sequence by Ki, from largest down. Please express your ranking as an ordered list of the labels.
a: 3, 1, 2
(3: 1200 nM, 1: 370 nM, 2: 18 nM)

###

molecular target: D(2) dopamine receptor (Homo sapiens, UniProt P14416, E181V/I183S); experiment: Displacement of [3H]spiperone from human cloned dopamine D2L receptor E181V/I183S mutant expressed in HEK293 cells
Sequence (P14416 whole entry E181V/I183S): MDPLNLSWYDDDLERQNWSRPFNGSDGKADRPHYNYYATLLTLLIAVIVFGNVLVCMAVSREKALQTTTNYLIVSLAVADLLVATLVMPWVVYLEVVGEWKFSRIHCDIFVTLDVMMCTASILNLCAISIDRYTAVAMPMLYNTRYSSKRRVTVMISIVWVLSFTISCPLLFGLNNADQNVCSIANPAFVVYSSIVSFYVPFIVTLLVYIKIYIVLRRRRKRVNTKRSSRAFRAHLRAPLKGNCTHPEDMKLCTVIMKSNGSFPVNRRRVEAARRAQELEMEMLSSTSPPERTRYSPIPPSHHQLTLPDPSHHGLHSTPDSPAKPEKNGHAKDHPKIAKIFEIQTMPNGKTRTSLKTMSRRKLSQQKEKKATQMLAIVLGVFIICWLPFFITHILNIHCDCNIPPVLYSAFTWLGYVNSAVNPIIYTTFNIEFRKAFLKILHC
pKi: −log10 of the molar value.
Measured Attribute: pKi

The cases that follow already have their pKi on record.
INSERT INTO measurements (smiles_representation, assay_system, endpoint_result) VALUES
  ('CSc1ccccc1N1CCN(CCCNC(=O)c2cnn3ccccc23)CC1', 'D(2) dopamine receptor (Homo sapiens, UniProt P14416, E181V/I183S)', 7.59),
  ('CSc1ccccc1N1CCN(CCCCNC(=O)c2cc3ccccn3n2)CC1', 'D(2) dopamine receptor (Homo sapiens, UniProt P14416, E181V/I183S)', 6.89);

[P] COc1ccccc1N1CCN(Cc2cc3ccccn3n2)CC1
[Q] Clc1ccc(N2CCN(Cc3cc4ccccn4n3)CC2)cc1
q: Input pair: P , Q . Output: entry with lower pKi. State your choice using its label.
a: Q
(Q: 4.33, P: 5.44)

###

In this section, each of the compounds is paired with its reported Ratio Ki.
system: HEK293; test: Selectivity ratio of Ki for human cloned dopamine D3 receptor H6.55A mutant to Ki for wild type human cloned dopamine D3 receptor expressed in HEK293 cells; type: cell-based
Respond using a number only.

The cases that follow already have their Ratio Ki on record.
INSERT INTO results (smiles_representation, endpoint_result) VALUES
  ('CSc1ccccc1N1CCN(CCCCNC(=O)c2cc3ccccn3n2)CC1', 1.3),
  ('Clc1ccc(N2CCN(Cc3cc4ccccn4n3)CC2)cc1', 0.005),
  ('CSc1ccccc1N1CCN(CCCNC(=O)c2cnn3ccccc23)CC1', 0.5);

Attention now shifts to the item below.
q: Indicate the recorded Ratio Ki value for this compound: COc1ccccc1N1CCN(Cc2cc3ccccn3n2)CC1
a: 0.08

###

biological target: D(3) dopamine receptor (Homo sapiens, UniProt P35462, H349A); assay: Displacement of [3H]spiperone from human cloned dopamine D3 receptor H6.55A mutant expressed in HEK293 cells
Sequence (P35462 as listed by the source H349A): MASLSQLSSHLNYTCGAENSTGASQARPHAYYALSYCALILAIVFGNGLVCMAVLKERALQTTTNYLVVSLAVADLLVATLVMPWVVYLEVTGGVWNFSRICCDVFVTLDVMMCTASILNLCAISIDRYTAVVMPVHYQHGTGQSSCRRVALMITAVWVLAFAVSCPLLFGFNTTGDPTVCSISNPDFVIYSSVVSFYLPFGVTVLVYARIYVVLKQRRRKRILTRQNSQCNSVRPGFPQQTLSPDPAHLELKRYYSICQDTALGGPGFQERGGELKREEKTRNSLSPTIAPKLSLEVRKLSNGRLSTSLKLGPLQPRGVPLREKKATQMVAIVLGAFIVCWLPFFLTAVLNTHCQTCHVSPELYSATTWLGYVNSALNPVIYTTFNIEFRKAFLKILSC
pKi: −log10 of the molar value.
Measured Attribute: pKi

The cases that follow already have their pKi on record.
INSERT INTO results (smiles_representation, assay_system, endpoint_result) VALUES
  ('CSc1ccccc1N1CCN(CCCCNC(=O)c2cc3ccccn3n2)CC1', 'D(3) dopamine receptor (Homo sapiens, UniProt P35462, H349A)', 9.12),
  ('COc1ccccc1N1CCN(Cc2cc3ccccn3n2)CC1', 'D(3) dopamine receptor (Homo sapiens, UniProt P35462, H349A)', 7.21);

[P] Clc1ccc(N2CCN(Cc3cc4ccccn4n3)CC2)cc1
[Q] CSc1ccccc1N1CCN(CCCNC(=O)c2cnn3ccccc23)CC1
q: Of P and Q , which one carries the higher reported pKi? State your choice using its label.
a: Q
(Q: 8.47, P: 7.34)

###

target: D(3) dopamine receptor (Homo sapiens, UniProt P35462); assay: Displacement of [3H]spiperone from human cloned dopamine D3 receptor FV3.28,3.29LM mutant expressed in HEK293 cells; type: cell-based
Sequence (P35462 whole entry): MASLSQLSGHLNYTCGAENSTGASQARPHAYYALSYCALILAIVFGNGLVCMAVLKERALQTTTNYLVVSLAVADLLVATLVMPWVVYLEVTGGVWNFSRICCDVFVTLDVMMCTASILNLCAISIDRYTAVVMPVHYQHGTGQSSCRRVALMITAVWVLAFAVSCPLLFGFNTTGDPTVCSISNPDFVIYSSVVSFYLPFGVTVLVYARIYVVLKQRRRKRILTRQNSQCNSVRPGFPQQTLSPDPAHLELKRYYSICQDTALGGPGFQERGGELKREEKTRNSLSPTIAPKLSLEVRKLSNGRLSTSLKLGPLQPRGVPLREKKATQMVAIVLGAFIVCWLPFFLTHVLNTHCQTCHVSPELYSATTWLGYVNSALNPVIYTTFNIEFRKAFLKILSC
Measured Attribute: Ki (nM)

INSERT INTO measurements (smiles_representation, measured_attribute, endpoint_result) VALUES
  ('CSc1ccccc1N1CCN(CCCCNC(=O)c2cc3ccccn3n2)CC1', 'Ki', 33);

[P] CSc1ccccc1N1CCN(CCCNC(=O)c2cnn3ccccc23)CC1
[Q] Clc1ccc(N2CCN(Cc3cc4ccccn4n3)CC2)cc1
[R] COc1ccccc1N1CCN(Cc2cc3ccccn3n2)CC1
q: // smallest Ki at index 0, largest at the end Please express your ranking as an ordered list of the labels.
a: R, P, Q
(R: 44 nM, P: 430 nM, Q: 730 nM)

###

biological target: D(4) dopamine receptor (Homo sapiens, UniProt P21917); experiment: Displacement of [3H]spiperone from human cloned dopamine D4 receptor expressed in CHO cells; format: cell-based
Sequence (P21917 whole entry): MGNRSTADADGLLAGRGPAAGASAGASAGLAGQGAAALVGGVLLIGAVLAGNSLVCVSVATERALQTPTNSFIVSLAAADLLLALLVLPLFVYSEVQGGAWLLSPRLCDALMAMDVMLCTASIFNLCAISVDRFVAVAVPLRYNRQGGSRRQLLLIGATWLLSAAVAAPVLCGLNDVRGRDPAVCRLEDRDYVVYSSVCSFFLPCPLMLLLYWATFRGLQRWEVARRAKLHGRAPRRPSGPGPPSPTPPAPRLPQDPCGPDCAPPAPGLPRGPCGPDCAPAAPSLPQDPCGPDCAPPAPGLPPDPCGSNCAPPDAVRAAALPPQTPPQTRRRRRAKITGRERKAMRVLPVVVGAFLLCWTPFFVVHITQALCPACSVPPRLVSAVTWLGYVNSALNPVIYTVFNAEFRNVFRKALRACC
Measured Attribute: Ki (nM)

INSERT INTO measurements (smiles_representation, measured_attribute, unit_string, endpoint_result) VALUES
  ('CSc1ccccc1N1CCN(CCCCNC(=O)c2cc3ccccn3n2)CC1', 'Ki', 'nM', 65);

[P] CSc1ccccc1N1CCN(CCCNC(=O)c2cnn3ccccc23)CC1
[Q] Clc1ccc(N2CCN(CCCCCc3cc4ccccn4n3)CC2)cc1
[R] COc1ccccc1N1CCN(Cc2cc3ccccn3n2)CC1
q: Put the items in sequence by Ki, from largest down. Please express your ranking as an ordered list of the labels.
a: Q, P, R

###

target: D(3) dopamine receptor (Homo sapiens, UniProt P35462, V87F); assay: Displacement of [3H]spiperone from human cloned dopamine D3 receptor V2.61F mutant expressed in HEK293 cells
Sequence (P35462 as listed by the source V87F): as the sequence (P35462 as listed by the source H349A) above, with V87F, A349H counted along it
Measured Attribute: Ki (nM)

The cases that follow already have their Ki on record.
INSERT INTO measurements (smiles_representation, measured_attribute, unit_string, endpoint_result) VALUES
  ('Clc1ccc(N2CCN(Cc3cc4ccccn4n3)CC2)cc1', 'Ki', 'nM', 9200),
  ('Clc1ccc(N2CCN(CCCCCc3cc4ccccn4n3)CC2)cc1', 'Ki', 'nM', 1900),
  ('CSc1ccccc1N1CCN(CCCCNC(=O)c2cc3ccccn3n2)CC1', 'Ki', 'nM', 230);

[I] CSc1ccccc1N1CCN(CCCNC(=O)c2cnn3ccccc23)CC1
[II] COc1ccccc1N1CCN(Cc2cc3ccccn3n2)CC1
q: Of I and II , which one carries the higher reported Ki? State your choice using its label.
a: II
(II: 2300 nM, I: 740 nM)

###

target: D(3) dopamine receptor (Homo sapiens); assay: Displacement of [3H]spiperone from wild type human cloned dopamine D3 receptor expressed in HEK293 cells; assay type: cell-based
pKi: −log10 of the molar value.
Measured Attribute: pKi

INSERT INTO assay_data (smiles_representation, measured_attribute, endpoint_result) VALUES
  ('CSc1ccccc1N1CCN(CCCCNC(=O)c2cc3ccccn3n2)CC1', 'pKi', 6.80);

[I] CSc1ccccc1N1CCN(CCCNC(=O)c2cnn3ccccc23)CC1
[II] Clc1ccc(N2CCN(Cc3cc4ccccn4n3)CC2)cc1
[III] Clc1ccc(N2CCN(CCCCCc3cc4ccccn4n3)CC2)cc1
[IV] COc1ccccc1N1CCN(Cc2cc3ccccn3n2)CC1
q: Put the items in sequence by pKi, from largest down. Please express your ranking as an ordered list of the labels.
a: I, III, IV, II
(I: 7.59, III: 6.66, IV: 6.11, II: 5.08)

###

molecular target: D(3) dopamine receptor (Homo sapiens, UniProt P35462, F106L/V107M/V87F); test: Displacement of [3H]spiperone from human cloned dopamine D3 receptor V2.61F/FV3.28,3.29LM mutant expressed in HEK293 cells
Sequence (P35462 as listed by the source V87F/F106L/V107M): as the sequence (P35462 as listed by the source H349A) above, with V87F, F106L, V107M, A349H counted along it
Measured Attribute: Ki (nM)

The cases that follow already have their Ki on record.
INSERT INTO measurements (smiles_representation, measured_attribute, endpoint_result) VALUES
  ('Clc1ccc(N2CCN(Cc3cc4ccccn4n3)CC2)cc1', 'Ki', 76),
  ('CSc1ccccc1N1CCN(CCCCNC(=O)c2cc3ccccn3n2)CC1', 'Ki', 18);

[a] Clc1ccc(N2CCN(CCCCCc3cc4ccccn4n3)CC2)cc1
[b] CSc1ccccc1N1CCN(CCCNC(=O)c2cnn3ccccc23)CC1
[c] COc1ccccc1N1CCN(Cc2cc3ccccn3n2)CC1
q: Put the items in sequence by Ki, from largest down. Please express your ranking as an ordered list of the labels.
a: a, b, c

###

target: UniProt P14416; experiment: Displacement of [3H]spiperone from wild type human cloned dopamine D2L receptor expressed in HEK293 cells; format: cell-based
Measured Attribute: Ki (µM)

INSERT INTO measurements (smiles_representation, measured_attribute, endpoint_result) VALUES
  ('CSc1ccccc1N1CCN(CCCCNC(=O)c2cc3ccccn3n2)CC1', 'Ki', 0.037);

[I] Clc1ccc(N2CCN(CCCCCc3cc4ccccn4n3)CC2)cc1
[II] COc1ccccc1N1CCN(Cc2cc3ccccn3n2)CC1
[III] Clc1ccc(N2CCN(Cc3cc4ccccn4n3)CC2)cc1
[IV] CSc1ccccc1N1CCN(CCCNC(=O)c2cnn3ccccc23)CC1
q: Put the items in sequence by Ki, from largest down. Please express your ranking as an ordered list of the labels.
a: III, II, I, IV
(III: 2.3 µM, II: 0.35 µM, I: 0.22 µM, IV: 0.0022 µM)
